Tested on: T47D
Assay: Antiproliferative activity against human T47D cells after 48 hrs by SRB assay
Assay type: functional
Reported Metric: GI50 (µM)

(I) CC1=CC[C@H]2C(C)(C)CCC[C@]2(C)[C@@]12CC[C@@](C)(CC(=O)N(Cc1ccccc1)C(C)(C)C(=O)NC1CCCCC1)O2
(II) CC1=CC[C@H]2C(C)(C)CCC[C@]2(C)[C@@]12CC[C@@](C)(C/C=C/CO)O2
Incoming: Given the two records I and II , choose the one whose GI50 value is lower. Label of pick, please.
Outgoing: I
(I: 4.4 µM, II: 17 µM)

(a) CC1=CC[C@H]2C(C)(C)CCC[C@]2(C)[C@@]12CC[C@@](C)(CC(=O)N(Cc1ccccc1)C(C)(C)C(=O)NC(C)(C)C)O2
(b) CC1=CC[C@H]2C(C)(C)CCC[C@]2(C)[C@@]12CC[C@@](C)(CC(=O)N(c1ccccc1)C(C)(C)C(=O)Nc1c(C)cccc1C)O2
Incoming: // compare measured GI50, left a , right b , return larger Kindly give the label for the entry you pick.
Outgoing: b
(b: 21 µM, a: 3.9 µM)

---

Test system: HeLa
Assay: Antiproliferative activity against human HeLa cells after 48 hrs by SRB assay
Assay type: functional
Reported Metric: GI50 (µM)

Check out these entries, answers already filled in.
# Mol, Reported Measurement
data = [
    ("CC1=CC[C@H]2C(C)(C)CCC[C@]2(C)[C@@]12CC[C@@](C)(CC=O)O2", 17),
    ("CC1=CC[C@H]2C(C)(C)CCC[C@]2(C)[C@@]12CC[C@@](C)(CC(=O)N(Cc1ccccc1)C(C)(C)C(=O)NC(C)(C)C)O2", 5.3),
]

(A) CC1=CC[C@H]2C(C)(C)CCC[C@]2(C)[C@@]12CC[C@@](C)(CC(=O)N(Cc1ccccc1)C(C)(C)C(=O)NC1CCCCC1)O2
(B) CC1=CC[C@H]2C(C)(C)CCC[C@]2(C)[C@@]12CC[C@@](C)(CC(=O)N(Cc1ccccc1)C(C)(C)C(=O)NCCN1CCOCC1)O2
(C) CC1=CC[C@H]2C(C)(C)CCC[C@]2(C)[C@@]12CC[C@@](C)(CCn1cc(CCCCc3cn(CC[C@]4(C)CC[C@@]5(O4)C(C)=CC[C@H]4C(C)(C)CCC[C@@]45C)nn3)nn1)O2
Incoming: Please order the records by their reported GI50, lowest number first. Please, when replying, give the labels in the order that was requested.
Outgoing: C, A, B

---

Test system: HeLa
Test: Antiproliferative activity against human HeLa cells after 48 hrs by SRB assay
Type: functional
Reported Metric: GI50 (µM)

Known results for compounds:
# Mol, Target Under Test, Unit, GI50
records = [
    ("CC1=CC[C@H]2C(C)(C)CCC[C@]2(C)[C@@]12CC[C@@](C)(CC(=O)N(Cc1ccccc1)C(C)(C)C(=O)Nc1c(C)cccc1C)O2", "HeLa", "µM", 11),
    ("CC1=CC[C@H]2C(C)(C)CCC[C@]2(C)[C@@]12CC[C@@](C)(C/C=C(\\C)CO)O2", "HeLa", "µM", 16),
    ("CC1=CC[C@H]2C(C)(C)CCC[C@]2(C)[C@@]12CC[C@@](C)(C[C@H]1O[C@@H]1CO)O2", "HeLa", "µM", 17),
]

(1) C#CCNC(=O)OCC[C@]1(C)CC[C@@]2(O1)C(C)=CC[C@H]1C(C)(C)CCC[C@@]12C
(2) CC1=CC[C@H]2C(C)(C)CCC[C@]2(C)[C@@]12CC[C@@](C)(CC(=O)N(c1ccccc1)C(C)(C)C(=O)NC(C)(C)C)O2
(3) CC1=CC[C@H]2C(C)(C)CCC[C@]2(C)[C@@]12CC[C@@](C)(CC(=O)N(c1ccccc1)C(C)(C)C(=O)Nc1c(C)cccc1C)O2
(4) CC1=CC[C@H]2C(C)(C)CCC[C@]2(C)[C@@]12CC[C@@](C)(CC(=O)N(Cc1ccccc1)C(C)(C)C(=O)NCc1ccccc1)O2
Incoming: Sort the 4 compounds by GI50; largest first, smallest last. Output spec: a listing of the labels in the requested order.
Outgoing: 3, 1, 2, 4

---

The following compounds are listed with their measured GI50 values.
Test system: HeLa
Assay: Antiproliferative activity against human HeLa cells after 48 hrs by SRB assay
Type: functional

# Mol, Reported Measurement
records = [
    ("CC1=CC[C@H]2C(C)(C)CC[C@H](O)[C@]2(C)[C@@]12CC[C@@](C)(CC(=O)O)O2", "> 100 µM"),
    ("CC1=CC[C@H]2C(C)(C)CCC[C@]2(C)[C@@]12CC[C@@](C)(CCOC(=O)NCc1cn(CC[C@]3(C)CC[C@@]4(O3)C(C)=CC[C@H]3C(C)(C)CCC[C@@]34C)nn1)O2", "> 100 µM"),
]

API: the following record is the query input.
Incoming: Param item = "CC1=CC[C@H]2C(C)(C)CCC[C@]2(C)[C@@]12CC[C@@](C)(CCN=[N+]=[N-])O2" ; retrieve measured GI50.
Outgoing: > 100 µM
